Tested on: P388/0 murine lymphatic leukemia
Assay: In vitro cytotoxicity, MTT assay, 72 h continuous exposure
Type: cell-based
Details: average over runs, value above 50 = 50% inhibition not achieved at 50 μg/ml
Could you please report measured average IC50 P388/0 for the items listed next?
Write down the numeric answer in µg/mL and omit the unit.

stdin: Return reported average IC50 P388/0; argument: O=C(CCC(=O)N1CCCCC1)Nc1cc2c(c3ccccc13)-c1ccc3ccccc3c1C2O (centres unmarked) [Tx-67]
stdout: 9.2

stdin: Return reported average IC50 P388/0; argument: O=C(CCC(=O)N1CCCCC1)Nc1cc2c(c3ccccc13)-c1ccc3ccccc3c1C2 [Tx-38]
stdout: 42.9

stdin: Return reported average IC50 P388/0; argument: CN1CCN(C(=O)CCC(=O)Nc2cc3c(c4ccccc24)-c2ccc4ccccc4c2C3)CC1 [Tx-37]
stdout: 2.0

stdin: Return reported average IC50 P388/0; argument: CN1CCN(C(=O)CCC(=O)Nc2cc3c(c4ccccc24)-c2ccc4ccccc4c2C3=O)CC1 [Tx-50]
stdout: 3.7

stdin: Return reported average IC50 P388/0; argument: CN1CCN(C(=O)CCC(=O)Nc2cc3c(c4ccccc24)-c2ccc4ccccc4c2C3O)CC1 (centres unmarked) [Tx-66]
stdout: 2.1

stdin: Return reported average IC50 P388/0; argument: CN1CCN(C(=O)CCC(=O)Nc2cc3c(c4ccccc24)-c2ccc4ccccc4c2C3)CC1.Cl [Tx-49]
stdout: 3.1

stdin: Return reported average IC50 P388/0; argument: CN1CCN(C(=O)C=CC(=O)Nc2cc3c(c4ccccc24)-c2ccc4ccccc4c2C3)CC1 [Tx-47]
stdout: 15.4

stdin: Return reported average IC50 P388/0; argument: O=C(CCC(=O)N1CCCCC1)Nc1ccc2c(c1)Cc1ccccc1-2 [Tx-69]
stdout: 41.5

###

Tested on: MCF-7 human breast carcinoma
Experiment: In vitro cytotoxicity, MTT assay, 72 h continuous exposure
Assay type: cell-based
Conditions: average over runs, value above 50 = 50% inhibition not achieved at 50 μg/ml
ENDPOINT: average IC50 MCF-7
In your response, put the unit directly after the numeric value.

stdin: Return reported average IC50 MCF-7; argument: O=C(CCC(=O)N1CCCCC1)Nc1cc2c(c3ccccc13)-c1ccc3ccccc3c1C2=O [Tx-51]
stdout: 27.0 µg/mL

stdin: Return reported average IC50 MCF-7; argument: O=C(CCC(=O)N1CCCCC1)Nc1cc2c(c3ccccc13)-c1ccc3ccccc3c1C2 [Tx-38]
stdout: 22.8 µg/mL

stdin: Return reported average IC50 MCF-7; argument: O=C(C=CC(=O)N1CCCCC1)Nc1cc2c(c3ccccc13)-c1ccc3ccccc3c1C2 [Tx-48]
stdout: 18.3 µg/mL

###

Could you please report measured average IC50 OVCAR-3 for the items listed next?
Test system: OVCAR 3 human ovarian carcinoma
Assay: In vitro cytotoxicity, MTT assay, 72 h continuous exposure
Type: cell-based
Conditions: average over runs, value above 50 = 50% inhibition not achieved at 50 μg/ml
Write down the numeric answer in µg/mL and omit the unit.

stdin: Return reported average IC50 OVCAR-3; argument: CN1CCN(C(=O)CCC(=O)Nc2cc3c(c4ccccc24)-c2ccc4ccccc4c2C3=O)CC1 [Tx-50]
stdout: 6.6

stdin: Return reported average IC50 OVCAR-3; argument: O=C(C=CC(=O)N1CCCCC1)Nc1cc2c(c3ccccc13)-c1ccc3ccccc3c1C2 [Tx-48]
stdout: 23.4

stdin: Return reported average IC50 OVCAR-3; argument: O=C(CCC(=O)N1CCCCC1)Nc1cc2c(c3ccccc13)-c1ccc3ccccc3c1C2=O [Tx-51]
stdout: 16.2

stdin: Return reported average IC50 OVCAR-3; argument: CN1CCN(C(=O)CCC(=O)Nc2cc3c(c4ccccc24)-c2ccc4ccccc4c2C3)CC1.Cl [Tx-49]
stdout: 2.8

stdin: Return reported average IC50 OVCAR-3; argument: CN1CCN(C(=O)CCC(=O)Nc2ccc3c(c2)Cc2ccccc2-3)CC1 [Tx-68]
stdout: 31.7

stdin: Return reported average IC50 OVCAR-3; argument: CN1CCN(C(=O)CCC(=O)Nc2cc3c(c4ccccc24)-c2ccc4ccccc4c2C3)CC1 [Tx-37]
stdout: 1.9

###

Tested on: MCF-7 human breast carcinoma
Experiment: In vitro cytotoxicity, MTT assay, 72 h continuous exposure
Assay type: cell-based
Conditions: average over runs, value above 50 = 50% inhibition not achieved at 50 μg/ml
ENDPOINT: average IC50 MCF-7 (µg/mL)
Write down the numeric answer in µg/mL and omit the unit.

stdin: Return reported average IC50 MCF-7; argument: CN1CCN(C(=O)CCC(=O)Nc2ccc3c(c2)Cc2ccccc2-3)CC1 [Tx-68]
stdout: 18.2

stdin: Return reported average IC50 MCF-7; argument: O=C(CCC(=O)N1CCCCC1)Nc1ccc2c(c1)Cc1ccccc1-2 [Tx-69]
stdout: 28.9

stdin: Return reported average IC50 MCF-7; argument: CN1CCN(C(=O)C=CC(=O)Nc2cc3c(c4ccccc24)-c2ccc4ccccc4c2C3)CC1 [Tx-47]
stdout: 20.2

stdin: Return reported average IC50 MCF-7; argument: CN1CCN(C(=O)CCC(=O)Nc2cc3c(c4ccccc24)-c2ccc4ccccc4c2C3)CC1.Cl [Tx-49]
stdout: 5.7

stdin: Return reported average IC50 MCF-7; argument: CN1CCN(C(=O)CCC(=O)Nc2cc3c(c4ccccc24)-c2ccc4ccccc4c2C3O)CC1 (centres unmarked) [Tx-66]
stdout: 5.9

stdin: Return reported average IC50 MCF-7; argument: O=C(CCC(=O)N1CCCCC1)Nc1cc2c(c3ccccc13)-c1ccc3ccccc3c1C2O (centres unmarked) [Tx-67]
stdout: 8.9

stdin: Return reported average IC50 MCF-7; argument: CN1CCN(C(=O)CCC(=O)Nc2cc3c(c4ccccc24)-c2ccc4ccccc4c2C3)CC1 [Tx-37]
stdout: 3.0

stdin: Return reported average IC50 MCF-7; argument: CN1CCN(C(=O)CCC(=O)Nc2cc3c(c4ccccc24)-c2ccc4ccccc4c2C3=O)CC1 [Tx-50]
stdout: 18.1

###

System: OVCAR 3 human ovarian carcinoma
Assay: In vitro cytotoxicity, MTT assay, 72 h continuous exposure
Format: cell-based
Details: average over runs, value above 50 = 50% inhibition not achieved at 50 μg/ml
Method: Every dibenzofluorene derivative was tested, as will be described below, against six to eight cultured, tumor cell lines of human and/or animal origin, at least half of which were selected from the NCI panel of test tumors. […] Compounds were evaluated for solubility characteristics in vehicles which would be appropriate for use in cell culture. […] Inhibition of growth relative to control cell culture was determined by the MTT method at the end of 72 hours. […]
Could you please report measured average IC50 OVCAR-3 for the items listed next?
Write down the numeric answer in µg/mL and omit the unit.

stdin: Return reported average IC50 OVCAR-3; argument: O=C(CCC(=O)N1CCCCC1)Nc1cc2c(c3ccccc13)-c1ccc3ccccc3c1C2O (stereo not shown)
stdout: 8.8

stdin: Return reported average IC50 OVCAR-3; argument: `CN1CCN(C(=O)C=CC(=O)Nc2cc3c(c4ccccc24)-c2ccc4ccccc4c2C3)CC1`
stdout: 1.1

stdin: Return reported average IC50 OVCAR-3; argument: `O=C(CCC(=O)N1CCCCC1)Nc1cc2c(c3ccccc13)-c1ccc3ccccc3c1C2`
stdout: 39.5

stdin: Return reported average IC50 OVCAR-3; argument: CN1CCN(C(=O)CCC(=O)Nc2cc3c(c4ccccc24)-c2ccc4ccccc4c2C3O)CC1 (stereo not shown)
stdout: 4.2

###

Test system: HL-60 human promyelocytic leukemia
Assay: In vitro cytotoxicity, MTT assay, 72 h continuous exposure
Format: cell-based
Conditions: average over runs, value above 50 = 50% inhibition not achieved at 50 μg/ml
Classes (average IC50 HL-60): class A = under 2 µg/mL, class B = from 2 µg/mL up to 10 µg/mL, class C = 10 µg/mL and over

stdin: Would you mind sorting `CN1CCN(C(=O)CCC(=O)Nc2cc3c(c4ccccc24)-c2ccc4ccccc4c2C3)CC1.Cl` into the appropriate category?
stdout: class B

stdin: Would you mind sorting O=C(CCC(=O)N1CCCCC1)Nc1cc2c(c3ccccc13)-c1ccc3ccccc3c1C2O (stereo not drawn) into the appropriate category?
stdout: class B

stdin: Would you mind sorting `CN1CCN(C(=O)C=CC(=O)Nc2cc3c(c4ccccc24)-c2ccc4ccccc4c2C3)CC1` into the appropriate category?
stdout: class A

stdin: Would you mind sorting `CN1CCN(C(=O)CCC(=O)Nc2cc3c(c4ccccc24)-c2ccc4ccccc4c2C3=O)CC1` into the appropriate category?
stdout: class B

stdin: Would you mind sorting `O=C(CCC(=O)N1CCCCC1)Nc1cc2c(c3ccccc13)-c1ccc3ccccc3c1C2` into the appropriate category?
stdout: class C

stdin: Would you mind sorting `O=C(CCC(=O)N1CCCCC1)Nc1cc2c(c3ccccc13)-c1ccc3ccccc3c1C2=O` into the appropriate category?
stdout: class C

stdin: Would you mind sorting `O=C(C=CC(=O)N1CCCCC1)Nc1cc2c(c3ccccc13)-c1ccc3ccccc3c1C2` into the appropriate category?
stdout: class C

stdin: Would you mind sorting `CN1CCN(C(=O)CCC(=O)Nc2cc3c(c4ccccc24)-c2ccc4ccccc4c2C3)CC1` into the appropriate category?
stdout: class A
